target: human ether-à-go-go-related gene (hERG) potassium channel (human, UniProt Q12809); test: primary screen, population patch clamp on CHO cells stably expressing hERG; higher = less effect of the substance;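 note: peak tail current of the secondary pulse compared with the same well before compound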
Sequence (Q12809 whole entry, looked up): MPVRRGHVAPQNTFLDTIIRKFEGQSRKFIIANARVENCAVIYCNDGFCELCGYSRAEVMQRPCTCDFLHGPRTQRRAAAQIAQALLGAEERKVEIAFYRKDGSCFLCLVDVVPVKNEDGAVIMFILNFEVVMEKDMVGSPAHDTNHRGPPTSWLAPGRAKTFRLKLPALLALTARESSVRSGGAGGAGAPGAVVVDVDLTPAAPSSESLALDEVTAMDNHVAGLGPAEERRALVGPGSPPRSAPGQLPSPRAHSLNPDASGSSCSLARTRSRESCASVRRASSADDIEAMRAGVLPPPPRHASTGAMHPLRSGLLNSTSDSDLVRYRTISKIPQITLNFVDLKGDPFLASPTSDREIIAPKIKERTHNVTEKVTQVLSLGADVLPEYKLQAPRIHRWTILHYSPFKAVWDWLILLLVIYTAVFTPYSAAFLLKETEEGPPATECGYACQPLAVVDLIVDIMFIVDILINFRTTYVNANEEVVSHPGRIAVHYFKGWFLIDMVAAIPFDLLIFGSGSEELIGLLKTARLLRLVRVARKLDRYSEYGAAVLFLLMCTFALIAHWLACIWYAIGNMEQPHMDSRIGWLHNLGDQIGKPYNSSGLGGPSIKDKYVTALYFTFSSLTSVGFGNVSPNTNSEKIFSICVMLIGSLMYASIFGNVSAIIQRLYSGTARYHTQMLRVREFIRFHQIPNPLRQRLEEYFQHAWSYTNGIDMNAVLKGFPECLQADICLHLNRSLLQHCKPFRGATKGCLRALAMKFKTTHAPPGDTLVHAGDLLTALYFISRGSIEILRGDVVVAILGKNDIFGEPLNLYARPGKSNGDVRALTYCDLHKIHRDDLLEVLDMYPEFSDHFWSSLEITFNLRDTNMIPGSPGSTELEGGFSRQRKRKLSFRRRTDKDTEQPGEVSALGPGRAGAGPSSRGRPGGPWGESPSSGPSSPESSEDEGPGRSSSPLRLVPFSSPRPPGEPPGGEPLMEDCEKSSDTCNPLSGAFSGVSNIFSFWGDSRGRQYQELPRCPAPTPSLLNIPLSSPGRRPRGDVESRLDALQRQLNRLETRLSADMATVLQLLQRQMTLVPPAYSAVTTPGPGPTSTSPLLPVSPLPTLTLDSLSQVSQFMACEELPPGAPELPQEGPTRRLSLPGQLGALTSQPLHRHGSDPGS
About 14,000 (4.5%) of roughly 310,000 compounds showed an effect of 50% or more. The effect is printed as a negative number. This excerpt belongs to a sample that is enriched for strong results.
quantity-kind: hERG current change (%, negative = inhibition) at 10uM (%)
# unit: % | format: bare number

- compound: "CCCCNC(=O)CCSc1ccc(C)cc1"
  experimental-system: "human ether-à-go-go-related gene (hERG) potassium channel (human, UniProt Q12809)"
  value-observed: -2.9
- compound: "CSc1nnc2ccc(-c3cccs3)nn12"
  experimental-system: "human ether-à-go-go-related gene (hERG) potassium channel (human, UniProt Q12809)"
  value-observed: -8.27
- compound: "COc1ccc(C(=O)N2CCN(c3ccc(NC(=O)Cc4ccccc4)cc3)CC2)cc1"
  experimental-system: "human ether-à-go-go-related gene (hERG) potassium channel (human, UniProt Q12809)"
  value-observed: -31.8

Sample Cc1cccc(N2C(S)=C(C#N)C(=O)NC2c2cccs2)c1 (stereo not drawn) ; hERG current change (%, negative = inhibition) at 10uM observed: 13

Sample CCCCCC(=O)Nc1ccc(N2CCN(C(=O)CCC)CC2)cc1 ; hERG current change (%, negative = inhibition) at 10uM observed: -32.8

Sample COc1cccc(OC)c1C(=O)NC(=S)N1CCOCC1 ; hERG current change (%, negative = inhibition) at 10uM observed: 17.2

Provenance of the data: paper PMC4336329
